Just for reference, ChEMBL document CHEMBL4346726 is where these values come from.

assay: Protein binding in rat plasma; type: ADME; settings: read-out: PPB
property: fraction unbound

Query block: Which fraction unbound is reported for this molecule? CC[C@@H]1[C@@H]2CN(C(=O)[C@H](C(C)(C)C)NC(=O)O[C@@H]3C[C@H]3CCCCC(F)(F)c3nc4ccc(OC)cc4nc3O2)[C@@H]1C(=O)N[C@]1(C(=O)NS(=O)(=O)C2(C)CC2)C[C@H]1C(F)F
Result block: < 0.01

###

Attribute: pKi
assay: Inhibition of HCV genotype 3a NS3/4a protease by enzymatic assay; set-up: species or system Hepatitis C virus subtype 3a
Answer as the number alone; pKi is minus log10 of concentration in mol/L.

Query block: Look at this compound and give its reported pKi. COc1ccc2nc3c(nc2c1)O[C@H]1CN(C(=O)[C@H](C(C)(C)C)NC(=O)O[C@@H]2C[C@H]2CCCCC3)[C@H](C(=O)N[C@]2(C(=O)NS(=O)(=O)C3CC3)C[C@H]2CCF)[C@@H]1C
Result block: 8.89

Query block: Given COc1ccc2nc3c(nc2c1)O[C@@H]1C[C@@H](C(=O)N[C@]2(C(=O)NS(=O)(=O)C4(C)CC4)C[C@H]2C(F)F)N(C1)C(=O)[C@H](C(C)(C)C)NC(=O)O[C@@H]1C[C@H]1CCCCC3 , state its recorded pKi.
Result block: 9.78
